compounds and their reported pKi
Molecular target: Beta-hexosaminidase subunit beta (Homo sapiens, UniProt P07686)
Sequence (P07686 43-311 limits assumed): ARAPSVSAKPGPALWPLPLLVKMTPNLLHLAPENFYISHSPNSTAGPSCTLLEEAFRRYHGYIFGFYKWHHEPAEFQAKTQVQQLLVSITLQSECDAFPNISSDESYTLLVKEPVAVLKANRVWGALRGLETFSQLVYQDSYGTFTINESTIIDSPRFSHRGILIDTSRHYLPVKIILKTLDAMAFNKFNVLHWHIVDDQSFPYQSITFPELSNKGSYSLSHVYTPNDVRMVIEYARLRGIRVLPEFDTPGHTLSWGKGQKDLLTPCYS
Sequence (P07686 315-556 limits assumed): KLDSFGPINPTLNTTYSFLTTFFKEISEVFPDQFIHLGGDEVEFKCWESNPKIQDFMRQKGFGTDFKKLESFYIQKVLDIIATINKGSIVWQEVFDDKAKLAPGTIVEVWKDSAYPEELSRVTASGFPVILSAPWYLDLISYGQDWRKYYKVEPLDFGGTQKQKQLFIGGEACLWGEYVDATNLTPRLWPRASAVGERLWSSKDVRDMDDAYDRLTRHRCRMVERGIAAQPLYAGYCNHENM
Assay: Inhibition of recombinant human His6-tagged HexB expressed in Pichia pastoris using varying levels of 4-Mu-GlcNAc as substrate preincubated for 10 mins followed by substrate addition and measured after 30 mins by dixon plot analysis
pKi is a log-scale quantity: -log10 of the concentration expressed in molar.

- Query smiles: "COc1ccc2c3c(cccc13)C(=O)N(CCCNCCCS[C@@H]1O[C@H](CO)[C@@H](O)[C@H](O)[C@H]1NC(C)=O)C2=O"
  Reported property: "pKi"
  Reported: 4.61
- Query smiles: "CC(=O)N[C@@H]1[C@@H](O)[C@H](O)[C@@H](CO)O[C@H]1SCCCNCCCN1C(=O)c2cccc3c(Cl)ccc(c23)C1=O"
  Reported property: "pKi"
  Reported: 5.74
- Query smiles: "CC(=O)N[C@@H]1[C@@H](O)[C@H](O)[C@@H](CO)O[C@H]1SCCNCCCN1C(=O)c2cccc3c(Br)ccc(c23)C1=O"
  Reported property: "pKi"
  Reported: 5.74
- Query smiles: "COc1ccc2c3c(cccc13)C(=O)N(CCNCCS[C@@H]1O[C@H](CO)[C@@H](O)[C@H](O)[C@H]1NC(C)=O)C2=O"
  Reported property: "pKi"
  Reported: 4.25
- Query smiles: "CC(=O)N[C@@H]1[C@@H](O)[C@H](O)[C@@H](CO)O[C@H]1SCCCNCCN1C(=O)c2cccc3c(Br)ccc(c23)C1=O"
  Reported property: "pKi"
  Reported: 5.29
- Query smiles: "CC(=O)N[C@@H]1[C@@H](O)[C@H](O)[C@@H](CO)O[C@H]1SCCCNCCN1C(=O)c2cccc3c(Cl)ccc(c23)C1=O"
  Reported property: "pKi"
  Reported: 5.80

For the compound `CC(=O)N[C@@H]1[C@@H](O)[C@H](O)[C@@H](CO)O[C@H]1SCCNCCN1C(=O)c2cccc3c(Br)ccc(c23)C1=O` , give its reported pKi. 5.59

###

Biological target: Beta-hexosaminidase subunit beta (Homo sapiens, UniProt P07686)
Assay: Inhibition of recombinant human His6-tagged HexB expressed in Pichia pastoris using varying levels of 4-Mu-GlcNAc as substrate preincubated for 10 mins followed by substrate addition and measured after 30 mins by dixon plot analysis
Reported property: Ki (µM)
Numeric only. Scale: µM

These solved cases illustrate the format of a correct answer.
- Query smiles: "COc1ccc2c3c(cccc13)C(=O)N(CCCNCCS[C@@H]1O[C@H](CO)[C@@H](O)[C@H](O)[C@H]1NC(C)=O)C2=O"
  Reported property: "Ki"
  Unit descriptor: "µM"
  Reported: 22.1
- Query smiles: "CC(=O)N[C@@H]1[C@@H](O)[C@H](O)[C@@H](CO)O[C@H]1SCCNCCCN1C(=O)c2cccc3c(Cl)ccc(c23)C1=O"
  Reported property: "Ki"
  Unit descriptor: "µM"
  Reported: 1.6
- Query smiles: "CC(=O)N[C@@H]1[C@@H](O)[C@H](O)[C@@H](CO)O[C@H]1SCCCNCCCN1C(=O)c2cccc3c(Br)ccc(c23)C1=O"
  Reported property: "Ki"
  Unit descriptor: "µM"
  Reported: 4.4

Now look at this entry.
Note down Ki recorded for `CC(=O)N[C@@H]1[C@@H](O)[C@H](O)[C@@H](CO)O[C@H]1SCCNCCN1C(=O)c2cccc3c(Cl)ccc(c23)C1=O` 1.2
